composite z-score by entry:
test: small-molecule microarray binders of probe aNog, primary screen, biochemical, biotinylated probe, 635/667 nm fluorescence (AID 1115); conditions: higher = more signal;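 note: probe is biotinylated aNog protein used at 0.15 µg/mL for 1 h at 4 C; z-score combines 667 nm fluorescence of each spot with its signal to noise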

>  <compound>
CC(C)C(=C=CC[C@@H](O)c1cccc(OCCO)c1)C[C@@H](O)c1ccccn1

>  <composite z-score>
-0.104

$$$$
>  <compound>
NCCCCCNC(=O)[C@H]1C[C@H]2C(=O)N[C@@H](Cc3ccccc3)C(=O)N2[C@H]1c1ccc(O)cc1

>  <composite z-score>
0.859

$$$$
>  <compound>
C=C(CCCC)C(=O)CC[C@@H](OC(=O)c1cccnc1)c1ccc(OCCO)cc1

>  <composite z-score>
-0.374

$$$$
>  <compound>
CC(C)CNC(=O)[C@@]1(c2ccc([N+](=O)[O-])cc2)CC(=O)N(C2CCCCC2)[C@@H]1c1ccc(CO)cc1

>  <composite z-score>
0.323

$$$$
>  <compound>
COc1cc2c(cc1O)C(c1ccc(CN3CCCC3)cc1)N(C)CC2 (centres undefined)

>  <composite z-score>
0.452

$$$$
>  <compound>
Cc1ccc(F)cc1S(=O)(=O)N[C@@H]1CCN(Cc2cccc3[nH]ccc23)C1

>  <composite z-score>
-0.492

$$$$
>  <compound>
COCC(=C=CC[C@@H](O)c1cccc(OCCO)c1)CCO

>  <composite z-score>
-0.0987

$$$$
>  <compound>
Cc1cccc([C@H]2C[C@H]3C(I)=C[C@@H]2C(=O)[C@]32CO2)c1

>  <composite z-score>
-0.0381

$$$$
>  <compound>
COc1cc(C(O)C2C=CC3C(=O)N(Cc4ccccc4)C(=O)C3N2n2cnnc2)cc(OC)c1OC (centres undefined)

>  <composite z-score>
0.266

$$$$
>  <compound>
[N-]=[N+]=NCc1ccccc1C[C@]1(C(=O)N2CCOCC2)COC(c2ccc(OCCCO)cc2)=N1

>  <composite z-score>
1.87

$$$$
>  <compound>
COC(=O)[C@@]1(Cc2ccc(F)cc2)[C@H]2c3cc(C(=O)N(C)C)n(Cc4c(CO)[nH]cc(C)c4=O)c3C[C@H]2CN1C(=O)c1ccccc1

>  <composite z-score>
1.38

$$$$
>  <compound>
CCCCC=C[C@@H](NC(=O)c1ccccc1)c1ccccc1

>  <composite z-score>
-0.578

$$$$
>  <compound>
Cc1ccc(S[C@]2(C(=O)NC(C)C)CC(=O)N(C(C)C)[C@@H]2c2ccc(CO)cc2I)cc1

>  <composite z-score>
-0.327

$$$$
>  <compound>
COC(=O)[C@@]1(Cc2ccccc2)[C@H]2c3cc(C(=O)N4CCCC4)n(CCSCCO)c3C[C@H]2CN1C(=O)c1ccccc1

>  <composite z-score>
2.24

$$$$
